Target: T1, human MSLN-R3-his protein (human, UniProt Q13421 487-598)
T1 construct: also called human MSLN-R3 protein; hMSLN-R3-his; not shown: His tag
T1 sequence (Q13421 495-606): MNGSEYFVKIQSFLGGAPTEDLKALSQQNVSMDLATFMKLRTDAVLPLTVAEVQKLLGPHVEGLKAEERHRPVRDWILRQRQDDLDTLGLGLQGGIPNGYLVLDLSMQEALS
Test: ELISA, coated antigen; antibody 0.0001 nM
RESULT_TYPE: OD450 (OD450)
Output spec: scalar in OD450, unitless text.

// known answers, use as guide
BINDER	OD450 / OD450
S009-F3.16.1 (antibody, human IgG1, kappa, V domains shown, Human-murine chimeric antibody, human IgG1/kappa constant regions) VH: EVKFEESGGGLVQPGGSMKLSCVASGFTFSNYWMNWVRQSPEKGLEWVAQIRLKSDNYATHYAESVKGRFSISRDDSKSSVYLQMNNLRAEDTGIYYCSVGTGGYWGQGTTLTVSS VL: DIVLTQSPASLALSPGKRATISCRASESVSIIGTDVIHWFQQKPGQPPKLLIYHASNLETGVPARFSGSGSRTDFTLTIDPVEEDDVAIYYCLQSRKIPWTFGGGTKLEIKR	0.08
S009-F3.38.10 (antibody, human IgG1, kappa, V domains shown, Human-murine chimeric antibody, human IgG1/kappa constant regions) VH: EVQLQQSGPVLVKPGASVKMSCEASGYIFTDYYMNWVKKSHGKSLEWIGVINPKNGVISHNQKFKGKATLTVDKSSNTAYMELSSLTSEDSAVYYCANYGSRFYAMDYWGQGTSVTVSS VL: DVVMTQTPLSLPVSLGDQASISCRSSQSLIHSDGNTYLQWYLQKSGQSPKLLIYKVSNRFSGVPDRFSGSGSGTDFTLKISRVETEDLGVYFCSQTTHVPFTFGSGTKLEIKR	0.08

Here is another binder to look at.
Req: Which measured OD450 value corresponds to S009-F3.7.3 (antibody, human IgG1, kappa, V domains shown, Human-murine chimeric antibody: murine VH/VL on human IgG1 heavy chain constant region and human kappa constant region) VH: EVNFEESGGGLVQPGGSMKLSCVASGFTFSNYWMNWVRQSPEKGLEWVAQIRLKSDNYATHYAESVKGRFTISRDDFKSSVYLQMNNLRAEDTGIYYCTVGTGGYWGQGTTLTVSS VL: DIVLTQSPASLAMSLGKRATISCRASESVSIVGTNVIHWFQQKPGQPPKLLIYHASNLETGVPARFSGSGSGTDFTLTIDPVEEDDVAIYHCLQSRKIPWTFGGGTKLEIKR ?
Resp: 0.07
